Reported values of growth for individual entries
Tested on: PC-3 prostate
METHOD NOTES: NCI-60 one-dose screen, 48 h (100 = growth as untreated, 0 = no growth, -100 = all killed)
CONDITION INFO: 10 µM unless noted
About 83,000 compounds went through this panel and 20% of them were active in at least one assay; those are over-represented in the sample as a whole.

[
  {
    "COMPOUND": "NCCNc1nc2ccccc2c2c(=O)c3cccc(F)c3sc12",
    "growth [%]": 62.9
  },
  {
    "COMPOUND": "Nc1ccccc1-c1cc2c(c3c1[nH]c1ccccc13)CCCCC2",
    "growth [%]": 92.1
  },
  {
    "COMPOUND": "CCOC(=O)C1=C(N)Oc2c(sc3c(C)cccc23)C1c1ccc(F)cc1 (stereo not given)",
    "growth [%]": 12
  },
  {
    "COMPOUND": "COc1cc(C(=O)c2cnc(-c3cccc4[nH]ccc34)[nH]2)cc(OC)c1OC",
    "growth [%]": 22.4
  },
  {
    "COMPOUND": "CCOC(=O)c1cn2ncnc(Oc3ccc(NC(=O)NCCN4CCOCC4)c(Cl)c3)c2c1C",
    "growth [%]": 91.2
  },
  {
    "COMPOUND": "CC1=C(SCCC(=O)OC(C[Se]C2=C(C)C(=O)c3ccccc3C2=O)C(=O)NC(C)(C)C)C(=O)c2ccccc2C1=O (stereo not given)",
    "growth [%]": -64
  },
  {
    "COMPOUND": "O=c1[nH]c2c(ccc3cnccc32)c2c1CCC2",
    "growth [%]": 0.402
  },
  {
    "COMPOUND": "Cc1ccc(/C=N\\NC(=O)c2[nH]c3ccc(F)cc3c2-c2ccccc2)cc1",
    "growth [%]": 15
  },
  {
    "COMPOUND": "BrCCCc1n(Cc2ccc3ccccc3c2)c2ccccc2[n+]1Cc1ccc2ccccc2c1",
    "growth [%]": -69.1
  },
  {
    "COMPOUND": "CCCCCCN1C(=O)/C(=c2\\sc3n(c2=O)C2C(NN=3)N(CC)C(=O)N2CC)c2ccccc21 (stereo not given)",
    "growth [%]": 15.2
  }
]

###

Test system: BT-549 breast
METHOD NOTES: NCI-60 one-dose screen, 48 h (100 = growth as untreated, 0 = no growth, -100 = all killed)
CONDITION INFO: 10 µM unless noted
Compounds without any hit were thinned out: in the full panel of roughly 83,000, 20% have a hit.
Labelling: growth reported below 50% becomes 1 (yes); at or above becomes 0 (no).

[
  {
    "COMPOUND": "COc1ccc2cc(C(C)C(=O)Nc3ccc(-c4n[nH]c(=S)n4C4CCCCC4)cc3)ccc2c1 (stereo unspecified)",
    "LABEL VALUE": "0 (no)"
  },
  {
    "COMPOUND": "COc1ccc(-c2nnc(COc3ccc(Cl)cc3Cl)o2)cc1OC",
    "LABEL VALUE": "0 (no)"
  },
  {
    "COMPOUND": "O=[N+]([O-])c1ccc(Cl)c(-c2cc(CCCCO)on2)c1",
    "LABEL VALUE": "0 (no)"
  },
  {
    "COMPOUND": "COc1ccc(C(=O)C(C)C)c2ccccc12",
    "LABEL VALUE": "0 (no)"
  },
  {
    "COMPOUND": "Oc1ccc(Cl)cc1Cc1cc(Cl)cc(Cl)c1O",
    "LABEL VALUE": "1 (yes)"
  },
  {
    "COMPOUND": "CN1C(=O)CNC(=O)[C@H](NC(=O)c2nc3ccccc3cc2O)CSSC[C@H]1C(=O)NCCc1nc2ccccc2cc1O",
    "LABEL VALUE": "0 (no)"
  },
  {
    "COMPOUND": "CCc1ccccc1-n1c(N)c(C#N)c(-c2ccc(Cl)cc2)c(C#N)c1=O",
    "LABEL VALUE": "0 (no)"
  },
  {
    "COMPOUND": "N#Cc1cccc(NC(=O)c2cc(-c3ccc(F)cc3F)ccc2O)c1",
    "LABEL VALUE": "1 (yes)"
  },
  {
    "COMPOUND": "COc1ccc(-c2cc(-c3ccc(Cl)cc3)c(C#N)c(=O)n2CCCCCC(=O)Nc2ccccc2N)cc1",
    "LABEL VALUE": "0 (no)"
  },
  {
    "COMPOUND": "Cc1ccc(C(CC(=O)O)c2c(C)[nH][nH]c2=O)cc1 (stereo unspecified)",
    "LABEL VALUE": "0 (no)"
  },
  {
    "COMPOUND": "CN1C(=O)N(C)C2Nn3c(s/c(=C\\c4ccccc4)c3=O)=NC21 (stereo unspecified)",
    "LABEL VALUE": "0 (no)"
  },
  {
    "COMPOUND": "O=C(N/N=C/[C@H](O)[C@H](O)[C@H](O)CO)c1ccc(NC(=O)c2cccnc2)cc1",
    "LABEL VALUE": "0 (no)"
  },
  {
    "COMPOUND": "Nc1nc(-c2cccc3ccccc23)cc2ccccc12",
    "LABEL VALUE": "1 (yes)"
  },
  {
    "COMPOUND": "COc1ccc(NC2=C(Br)C(=O)C(C)=C(C)C2=O)cc1",
    "LABEL VALUE": "0 (no)"
  },
  {
    "COMPOUND": "CC1Cc2c(ncn3c(-c4ccc(F)cc4)nnc23)N(C)c2ccccc21 (stereo unspecified)",
    "LABEL VALUE": "0 (no)"
  },
  {
    "COMPOUND": "O=C(Cc1ccc(F)c(Cl)c1)Nc1cc(C2(C(F)(F)F)CC2)nn1CC1CCCCC1",
    "LABEL VALUE": "1 (yes)"
  },
  {
    "COMPOUND": "COc1nc2ccccc2cc1-c1nc2c(cnn2-c2ccccc2)c(=O)[nH]1",
    "LABEL VALUE": "1 (yes)"
  },
  {
    "COMPOUND": "COc1cc2cc(Oc3ccc(NC(=O)Nc4cccc(C(F)(F)F)c4)cc3)c(C)nc2cc1OCCN1CCOCC1",
    "LABEL VALUE": "0 (no)"
  },
  {
    "COMPOUND": "CCCCn1c(=O)c(-c2cc(-c3ccc(Cl)cc3)nc(-c3ccc(Cl)cc3)c2)cc2cc(C)ccc21",
    "LABEL VALUE": "0 (no)"
  }
]

Cited source for all entries: PubChem BioAssay (NCI)
